Molecular target: Innovin, lyophilized recombinant human tissue factor combined with phospholipids (human, UniProt P13726 33-295, limits assumed); further: test concentration or dose not given here
Experiment: cell-based or functional assay
assay-readout: T½ Max (seconds), coagulation of human plasma

binder	measurement-unit	measured-number
M51 (antibody, V domains shown, complete MAb; FR4 is its own entry; also called H21/L2) VH: EVQLVQSGAEVKKPGATVKISCKVSGYTFITYWIEWVQQAPGKGLEWMGDILPGSGSTNYNENFKGRVTITADTSTDTAYMELSSLRSEDTAVYYCATSGYYGNSGFAYWGQGTLVTVSS VL: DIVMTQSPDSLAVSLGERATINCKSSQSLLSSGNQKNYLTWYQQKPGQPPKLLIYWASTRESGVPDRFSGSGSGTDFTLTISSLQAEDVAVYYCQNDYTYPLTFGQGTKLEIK	s	207
M1643 (antibody, V domains shown, complete MAb; FR4 is its own entry; also called H22/L162) VH: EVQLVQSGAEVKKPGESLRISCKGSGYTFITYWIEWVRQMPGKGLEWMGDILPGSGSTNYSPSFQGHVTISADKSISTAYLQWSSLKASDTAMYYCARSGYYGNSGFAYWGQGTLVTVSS VL: DIVMTQTPLSLPVTPGEPASISCKSSQSLLYVYGQKNYLTWYLQKPGQSPQLLIYWASTRESGVPDRFSGSGSGTDFTLKISRVEAEDVGVYYCQNDFSWPLTFGQGTKLEIK	s	148
M1605 (antibody, V domains shown, complete MAb; FR4 is its own entry; also called H168/L3) VH: EVQLVQSGAEVKKPGESLRISCKGSGYTFGTYWIEWVRQMPGKGLEWMGDILPGTGHTTYSPSFQGHVTISADKSISTAYLQWSSLKASDTAMYYCARSGYYGNSGFAYWGQGTLVTVSS VL: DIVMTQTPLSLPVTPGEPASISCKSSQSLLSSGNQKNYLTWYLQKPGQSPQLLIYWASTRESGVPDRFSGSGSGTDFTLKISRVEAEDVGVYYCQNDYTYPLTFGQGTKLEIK	s	160
M1, 10H10 mouse-human chimera (antibody, V domains shown, also called H13/L1; parent chimeric antibody) VH: QVHLQQSGAELMKPGASVKISCKASGYTFITYWIEWVKQRPGHGLEWIGDILPGSGSTNYNENFKGKATFTADSSSNTAYMQLSSLTSEDSAVYYCARSGYYGNSGFAYWGQGTLVTVSA VL: DIVMTQSPSSLTVTAGEKVTMSCKSSQSLLSSGNQKNYLTWYQQIPGQPPKLLIYWASTRESGVPDRFTGSGSGTDFTLTINSVQAEDLAVYYCQNDYTYPLTFGAGTKLELK	s	173
M58 (antibody, V domains shown, complete MAb; FR4 is its own entry; also called H22/L2) VH: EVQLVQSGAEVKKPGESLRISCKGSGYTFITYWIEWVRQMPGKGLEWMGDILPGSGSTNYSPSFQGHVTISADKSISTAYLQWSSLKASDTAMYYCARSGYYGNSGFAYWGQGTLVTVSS VL: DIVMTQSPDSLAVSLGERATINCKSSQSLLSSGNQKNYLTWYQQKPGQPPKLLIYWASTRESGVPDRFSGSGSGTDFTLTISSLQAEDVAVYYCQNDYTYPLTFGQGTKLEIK	s	192
M1597 (antibody, V domains shown, complete MAb; FR4 is its own entry; also called H134/L3) VH: EVQLVQSGAEVKKPGESLRISCKGSGYTFSSYWIEWVRQMPGKGLEWMGDILPGTGATHYSPSFQGHVTISADKSISTAYLQWSSLKASDTAMYYCARSGYYGNSGFAYWGQGTLVTVSS VL: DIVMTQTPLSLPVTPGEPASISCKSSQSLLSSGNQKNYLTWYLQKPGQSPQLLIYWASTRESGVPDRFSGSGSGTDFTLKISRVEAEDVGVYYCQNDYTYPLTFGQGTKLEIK	s	157
M1591 (antibody, V domains shown, complete MAb; FR4 is its own entry; also called H122/L3) VH: EVQLVQSGAEVKKPGESLRISCKGSGYTFRPYWIEWVRQMPGKGLEWMGDIIPGTGYTNYSPSFQGHVTISADKSISTAYLQWSSLKASDTAMYYCARSGYYGNSGFAYWGQGTLVTVSS VL: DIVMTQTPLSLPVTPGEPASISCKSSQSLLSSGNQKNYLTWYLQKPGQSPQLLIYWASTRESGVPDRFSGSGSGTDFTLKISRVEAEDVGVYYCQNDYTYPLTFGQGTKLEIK	s	154
M46 (antibody, V domains shown, complete MAb; FR4 is its own entry; also called H20/L4) VH: QVQLVQSGAEVKKPGASVKVSCKASGYTFITYWIEWVRQAPGQGLEWMGDILPGSGSTNYNENFKGRVTMTTDTSTSTAYMELRSLRSDDTAVYYCARSGYYGNSGFAYWGQGTLVTVSS VL: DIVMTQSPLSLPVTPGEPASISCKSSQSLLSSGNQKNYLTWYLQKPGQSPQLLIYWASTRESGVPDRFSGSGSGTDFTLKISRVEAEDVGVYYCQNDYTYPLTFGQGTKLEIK	s	195
